Task for the reader: assign each of the following molecules its reported log10(EC50).
tested on: H929 cells; assay: Cell viability assay (Cell TiterGlo), H929 cells; assay type: cell-based, human; details: Homo sapiens, NCI-H929, 24 hours
The base-10 logarithm of EC50, taken with EC50 in nM, is what appears here.

{"Molecule": "CNC(=O)N1CC=C(c2cc3c(-c4ccc5ncn(Cc6cccc(F)c6)c5c4)ccnc3[nH]2)CC1", "log10(EC50)": 1.43}
{"Molecule": "N#Cc1cn(Cc2cccc(F)c2)c2cc(-c3ccnc4[nH]c(C5CCN(CC(O)CO)CC5)cc34)ccc12 (stereo not shown)", "log10(EC50)": 1.72}
{"Molecule": "C1=C(c2cc3c(-c4ccc5nnn(CC6CCOCC6)c5c4)ccnc3[nH]2)CCNC1", "log10(EC50)": 2.65}
{"Molecule": "CS(=O)(=O)N1CCC(c2cc3c(-c4ccc5ccn(Cc6cncc(F)c6)c5n4)ccnc3[nH]2)CC1", "log10(EC50)": 3.15}

Give log10(EC50) for each of the items listed below.
1. OCC(O)CN1CCC(c2cc3c(-c4ccc5ncn(Cc6cncc(F)c6)c5c4)ccnc3[nH]2)CC1 (stereo not shown)
2. Fc1cccc(CCn2nnc3ccc(-c4ccnc5[nH]c(C6CCNCC6)cc45)cc32)c1
3. CNC(=O)N1CCC(c2cc3c(-c4ccc5ccn(Cc6cncc(F)c6)c5n4)ccnc3[nH]2)CC1

Result:
[2.08, 2.95, 3.04]

Give log10(EC50) for each of the items listed below.
1. Fc1cncc(Cn2ccc3ccc(-c4ccnc5[nH]c(C6CCNCC6)cc45)nc32)c1
2. Fc1cccc(Cn2ccc3ccc(-c4ccnc5[nH]c(C6CCNCC6)cc45)nc32)c1
3. Fc1cccc(Cn2ccc3ncc(-c4ccnc5[nH]c(C6CCNCC6)cc45)cc32)c1
4. N#Cc1cn(Cc2ccccc2)c2cc(-c3ncnc4[nH]c(C5=CCNCC5)cc34)ccc12

Result:
[2.40, 2.18, 1.94, 2.00]

Give log10(EC50) for each of the items listed below.
1. Fc1cccc(CCn2nnc3ccc(-c4ccnc5[nH]c(C6CCNCC6)c(Cl)c45)cc32)c1
2. CS(=O)(=O)N1CCC(c2cc3c(-c4cnc5ccn(Cc6cncc(F)c6)c5c4)ccnc3[nH]2)CC1
3. CNC(=O)N1CCC(c2cc3c(-c4cnc5ccn(Cc6cccc(F)c6)c5c4)ccnc3[nH]2)CC1
4. O=C(CO)N1CC=C(c2cc3c(-c4ccc5nnn(CC6CCOCC6)c5c4)ccnc3[nH]2)CC1
5. Fc1cc2ncn(CC3CCOCC3)c2cc1-c1ccnc2[nH]c(C3CCNCC3)cc12

Result:
1. 3.04
2. 2.73
3. 2.08
4. 2.64
5. 2.93

* * *

Task for the reader: assign each of the following compounds its reported IC50.
Target: CDK9/Cyclin T1 (Homo sapiens)
Sequence (P50750 whole entry): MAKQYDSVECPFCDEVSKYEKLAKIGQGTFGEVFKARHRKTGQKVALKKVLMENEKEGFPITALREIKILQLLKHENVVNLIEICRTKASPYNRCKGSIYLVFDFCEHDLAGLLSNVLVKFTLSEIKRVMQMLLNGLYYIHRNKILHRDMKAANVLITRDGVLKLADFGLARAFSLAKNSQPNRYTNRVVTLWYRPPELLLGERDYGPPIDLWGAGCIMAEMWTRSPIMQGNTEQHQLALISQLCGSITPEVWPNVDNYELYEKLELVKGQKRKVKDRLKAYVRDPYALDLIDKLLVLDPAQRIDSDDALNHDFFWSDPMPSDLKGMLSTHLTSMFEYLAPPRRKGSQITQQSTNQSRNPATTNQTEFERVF
Sequence (O60563 whole entry partner): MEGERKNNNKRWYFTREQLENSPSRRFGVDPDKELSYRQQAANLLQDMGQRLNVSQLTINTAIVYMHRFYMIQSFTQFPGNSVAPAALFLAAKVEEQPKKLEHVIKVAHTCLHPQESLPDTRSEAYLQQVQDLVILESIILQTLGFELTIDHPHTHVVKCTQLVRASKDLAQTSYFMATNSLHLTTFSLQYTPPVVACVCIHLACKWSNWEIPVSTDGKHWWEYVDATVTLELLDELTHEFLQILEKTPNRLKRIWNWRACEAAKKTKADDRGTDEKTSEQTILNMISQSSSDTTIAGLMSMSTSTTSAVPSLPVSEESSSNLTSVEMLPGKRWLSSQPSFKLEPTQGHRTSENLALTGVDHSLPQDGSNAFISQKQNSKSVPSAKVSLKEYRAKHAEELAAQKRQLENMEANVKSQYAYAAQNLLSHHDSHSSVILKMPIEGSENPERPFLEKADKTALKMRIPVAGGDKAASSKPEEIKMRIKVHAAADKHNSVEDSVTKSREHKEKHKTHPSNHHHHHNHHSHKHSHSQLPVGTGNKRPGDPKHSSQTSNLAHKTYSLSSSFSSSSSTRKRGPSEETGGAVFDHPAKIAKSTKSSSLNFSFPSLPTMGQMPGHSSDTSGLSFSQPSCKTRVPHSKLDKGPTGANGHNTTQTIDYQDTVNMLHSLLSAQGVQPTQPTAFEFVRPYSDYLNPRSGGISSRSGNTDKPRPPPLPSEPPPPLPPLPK
Assay: CDK9 enzyme activity, LANCE ULight TR-FRET kinase assay
Conditions: 1000 μM ATP, 4 nM CDK9/Cyclin T1, 30 minutes
Experimental: CDK9 enzyme activities were measured using LANCE ULight TR-FRET kinase assay reagents (PerkinElmer, Waltham, Mass.). Compounds were directly added in 100% DMSO to white low volume assay plates (Perkin Elmer Proxiplate 6008289) using a Labcyte Echo acoustic dispenser. […] The reaction was equilibrated for 1 hour and the signal read in the Perkin Elmer Envision in TR-FRET mode (excitation at 320 nm and emission at 615/665 nm).
Answers are plain numbers, in nM.

Give IC50 for each of the items listed below.
1. Fc1cccc(Cn2ccc3ncc(-c4ccnc5[nH]c(C6CCNCC6)cc45)cc32)c1
2. OCC(O)CN1CC=C(c2cc3c(-c4ccc5ncn(Cc6cccc(F)c6)c5c4)ccnc3[nH]2)CC1 (stereo not drawn)
3. O=C(CO)N1CCC(c2cc3c(-c4cc5c(cc4F)ncn5CC4CCOCC4)ccnc3[nH]2)CC1

Result:
[28, 19, 100]

* * *

Task for the reader: assign each of the following compounds its reported log10 of IC50.
Target: CDK9/Cyclin T1 (Homo sapiens)
Test: CDK9 enzyme activity, LANCE ULight TR-FRET kinase assay
Details: 1000 μM ATP, 4 nM CDK9/Cyclin T1, 30 minutes
Experimental: CDK9 enzyme activities were measured using LANCE ULight TR-FRET kinase assay reagents (PerkinElmer, Waltham, Mass.). Compounds were directly added in 100% DMSO to white low volume assay plates (Perkin Elmer Proxiplate 6008289) using a Labcyte Echo acoustic dispenser. […] The reaction was equilibrated for 1 hour and the signal read in the Perkin Elmer Envision in TR-FRET mode (excitation at 320 nm and emission at 615/665 nm).
The base-10 logarithm of IC50, taken with IC50 in nM, is what appears here.

{"Compound": "N#Cc1cn(Cc2cccc(F)c2)c2nc(-c3ccnc4[nH]c(C5CCNCC5)cc34)ccc12 [Example 35]", "Experimental readout": "log10 of IC50", "Val": 1.11}
{"Compound": "C1=C(c2cc3c(-c4ccc5nnn(CC6CCOCC6)c5c4)ccnc3[nH]2)CCNC1 [Example 36]", "Experimental readout": "log10 of IC50", "Val": 1.77}
{"Compound": "CNC(=O)N1CCC(c2cc3c(-c4cc5c(cc4F)ncn5CC4CCOCC4)ccnc3[nH]2)CC1 [Example 20]", "Experimental readout": "log10 of IC50", "Val": 2.20}

Give log10 of IC50 for each of the items listed below.
1. Fc1cccc(Cn2ccc3cc(F)c(-c4ccnc5[nH]c(C6CCNCC6)cc45)cc32)c1 [Example 9]
2. N#Cc1cn(CC2CCOCC2)c2cc(-c3ccnc4[nH]c(C5CCNCC5)cc34)cnc12 [Example 28]
3. CS(=O)(=O)N1CCC(c2cc3c(-c4ccc5ncn(CC6CCOCC6)c5c4)ccnc3[nH]2)CC1 [Example 6]

Result:
[1.70, 2.26, 1.58]

Give log10 of IC50 for each of the items listed below.
1. Fc1cncc(Cn2cnc3ccc(-c4ccnc5[nH]c(C6CCNCC6)cc45)cc32)c1 [Example 12]
2. Clc1cc2ncn(CC3CCOCC3)c2cc1-c1ccnc2[nH]c(C3CCNCC3)cc12 [Example 27]

Result:
1.48
1.72

Give log10 of IC50 for each of the items listed below.
1. O=C(CO)N1CC=C(c2cc3c(-c4ccc5nnn(CC6CCOCC6)c5c4)ccnc3[nH]2)CC1 [Example 38]
2. Fc1cccc(CCn2nnc3ccc(-c4ccnc5[nH]c(C6CCNCC6)c(Cl)c45)cc32)c1 [Example 33]
3. CNC(=O)N1CC=C(c2cc3c(-c4ccc5ccn(Cc6cncc(F)c6)c5n4)ccnc3[nH]2)CC1 [Example 54]
4. CS(=O)(=O)N1CCC(c2cc3c(-c4ccc5c(C#N)cn(Cc6cccc(F)c6)c5c4)ccnc3[nH]2)CC1 [Example 11]
5. CS(=O)(=O)N1CC=C(c2cc3c(-c4ccc5ncn(Cc6cccc(F)c6)c5c4)ccnc3[nH]2)CC1 [Example 15]
6. Fc1cccc(Cn2ccc3ccc(-c4ccnc5[nH]c(C6CCNCC6)cc45)nc32)c1 [Example 43]
7. CNC(=O)N1CCC(c2cc3c(-c4cnc5ccn(Cc6cccc(F)c6)c5c4)ccnc3[nH]2)CC1 [Example 45]

Result:
1: 1.79; 2: 1.26; 3: 1.43; 4: 2.04; 5: 1.63; 6: 1.41; 7: 1.48

Ask: What does the data say about its log10 of IC50? Entry: OCC(O)CN1CCC(c2cc3c(-c4cc5c(cc4F)ncn5CC4CCOCC4)ccnc3[nH]2)CC1 (stereo not shown) [Example 19]
Result: 1.99

* * *

target: CDK9/Cyclin T1 (Homo sapiens); experiment: CDK9 enzyme activity, LANCE ULight TR-FRET kinase assay; settings: 1000 μM ATP, 4 nM CDK9/Cyclin T1, 30 minutes
Experimental readout: pIC50
One number for each entry, as −log10 of the molar value.

Solved entries:
{"Sample smiles": "Fc1cncc(Cn2ccc3ccc(-c4ccnc5[nH]c(C6=CCCNC6)cc45)nc32)c1", "pIC50": 7.54}
{"Sample smiles": "COC(=N)c1cn(Cc2cccc(F)c2)c2cc(-c3ccnc4[nH]c(C5CCNCC5)cc34)c(F)cc12", "pIC50": 7.04}
{"Sample smiles": "N#Cc1cn(Cc2ccccc2)c2cc(-c3ccnc4[nH]c(C5CCNCC5)cc34)ccc12", "pIC50": 7.62}

Moving on to the next molecule.
Ask: Request body: readout pIC50, system CDK9/Cyclin T1 (Homo sapiens), query `CS(=O)(=O)N1CC=C(c2cc3c(-c4ccc5ccn(Cc6cncc(F)c6)c5n4)ccnc3[nH]2)CC1` . Return the value.
Result: 7.19

* * *

System: H929 cells
Assay: Cell viability assay (Cell TiterGlo), H929 cells
Assay type: cell-based, human
Settings: Homo sapiens, NCI-H929, 24 hours
Method: Cell viability assays were performed using A431 or H929 cells. […] After 24 hours at 37° C., cell viability was measured using Cell TiterGlo reagent (Promega) with a luminescence reader. […] After 24 hours at 3TC, cell viability was measured using Cell TiterGlo reagent (Promega) with a luminescence reader.
Experimental readout: EC50 (nM)
One number for each entry, in nM.

{"Sample smiles": "c1cc(-c2ccc3ncn(CC4CCOCC4)c3c2)c2cc(C3CCNCC3)[nH]c2n1", "EC50 / nM": 180}
{"Sample smiles": "CNC(=O)N1CCC(c2cc3c(-c4cnc5ccn(Cc6cncc(F)c6)c5c4)ccnc3[nH]2)CC1", "EC50 / nM": 600}
{"Sample smiles": "CS(=O)(=O)N1CCC(c2cc3c(-c4ccc5ncn(CC6CCOCC6)c5c4)ccnc3[nH]2)CC1", "EC50 / nM": 130}
{"Sample smiles": "Fc1cncc(Cn2ccc3ccc(-c4ccnc5[nH]c(C6=CCCNC6)cc45)nc32)c1", "EC50 / nM": 250}
{"Sample smiles": "c1cc(-c2cnc3ccn(CC4CCOCC4)c3c2)c2cc(C3CCNCC3)[nH]c2n1", "EC50 / nM": 6300}

Give EC50 for each of the items listed below.
1. CNC(=O)N1CCC(c2cc3c(-c4cc5c(cc4F)ncn5CC4CCOCC4)ccnc3[nH]2)CC1
2. N#Cc1cn(Cc2ccccc2)c2cc(-c3ccnc4[nH]c(C5CCNCC5)cc34)ccc12
3. N#Cc1cn(Cc2cccc(F)c2)c2cc(-c3ccnc4[nH]c(C5CCNCC5)cc34)c(F)cc12
4. CS(=O)(=O)N1CC=C(c2cc3c(-c4ccc5ccn(Cc6cncc(F)c6)c5n4)ccnc3[nH]2)CC1
5. CS(=O)(=O)N1CCC(c2cc3c(-c4cnc5ccn(Cc6cccc(F)c6)c5c4)ccnc3[nH]2)CC1

Result:
1. 1970
2. 79
3. 210
4. 370
5. 130
